Reported 229E E protein Inhibition (score) values are given for each entry in this list.
Molecular target: 229E-CoV E-protein (Human coronavirus 229E, UniProt P19741)
Sequence (P19741 whole entry): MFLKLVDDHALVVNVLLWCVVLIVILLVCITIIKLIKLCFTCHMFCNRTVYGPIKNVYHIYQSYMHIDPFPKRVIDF
Experiment: Bacterial bio-assay for 229E-CoV E-protein
Details: halo of growth score; E. coli expressing E protein at 37° C.
Kindly provide the numeric value in score only, without the unit symbol.

# example entries with known answers
Compound: N=C(N)NC(=O)/C=C/c1cc(Br)ccc1F
Unit Abbreviation: score
229E E protein Inhibition (score): 1.4
--
Compound: N=C(N)NC(=O)C1CC1c1ccccc1 (stereo not drawn)
Unit Abbreviation: score
229E E protein Inhibition (score): 0.8
--
Compound: NC(N)=NC(=O)c1cccc2ccccc12
Unit Abbreviation: score
229E E protein Inhibition (score): 1.9
--
Compound: N=C(N)NC(=O)/C=C/c1cccc2ccccc12 [trans-3-(1-napthyl)acryloylguanidine]
Unit Abbreviation: score
229E E protein Inhibition (score): 3.7

**Q:** Sample `NC(N)=NC(=O)/C=C/c1ccc(Br)cc1` — what was its 229E E protein Inhibition (score)?
**A:** 2.0

**Q:** Sample `N=C(N)NC(=O)/C=C/c1cccc(-c2ccccc2)c1` — what was its 229E E protein Inhibition (score)?
**A:** 2.9

**Q:** 229E E protein Inhibition (score) lookup needed for `NC(N)=NC(=O)c1ccc2ccccc2c1` , thanks.
**A:** 0.3

**Q:** Give the measured 229E E protein Inhibition (score) of `N=C(N)NC(=O)Cc1cccc2ccccc12` .
**A:** 0.8

**Q:** Item `Cc1cccc(/C=C/C(=O)NC(=N)N)c1C` has what recorded 229E E protein Inhibition (score)?
**A:** 0.5

**Q:** Entry under review: `N=C(N)NC(=O)/C=C/c1ccccc1-c1ccccc1` . Reported 229E E protein Inhibition (score)?
**A:** 3.0

**Q:** Please report the recorded 229E E protein Inhibition (score) for `N=C(N)NC(=O)/C=C/c1ccccc1Cl` .
**A:** 0.1

**Q:** Consider the compound shown here: `N=C(N)NC(=O)/C=C/c1c(Cl)cccc1Cl` What is its recorded 229E E protein Inhibition (score)?
**A:** 1.0

====

Here the recorded Vpu Inhibition (score/# of times tested) is given for each entry.
Target: UniProtKB P05919
Details: halo of growth score between zero and six; XL1-blue E. coli with pPL-Vpu, no adenine, 37° C.
Structures can show the parent of a compound that is named as a salt.

The cases that follow already have their Vpu Inhibition (score/# of times tested) on record.
Compound: N=C(N)NC(=O)/C=C/c1cc(Br)ccc1F
Parameter Measured: Vpu Inhibition (score/# of times tested)
Data Value: 3.5/2 score
//
Compound: N=C(N)NC(=O)/C=C/c1ccccc1F
Parameter Measured: Vpu Inhibition (score/# of times tested)
Data Value: 2.1/2 score
//
Compound: NC(N)=NC(=O)/C=C/c1ccc(Cl)cc1
Parameter Measured: Vpu Inhibition (score/# of times tested)
Data Value: 2.7/5 score

**Q:** # query: Vpu Inhibition (score/# of times tested) of entry `CCOc1ccc(/C=C/C(=O)NC(=N)N)cc1`
**A:** 0.69/2 score

**Q:** Vpu Inhibition (score/# of times tested) lookup needed for `Cc1ccc(C)c(/C=C/C(=O)NC(=N)N)c1` , thanks.
**A:** 2.69/2 score

**Q:** Would you mind telling me what Vpu Inhibition (score/# of times tested) value was observed for `NC(N)=NC(=O)c1cccc2ccccc12` ?
**A:** 0.3/2 score

**Q:** Param item = `N=C(N)NC(=O)/C=C/c1c(Cl)cccc1Cl` ; retrieve measured Vpu Inhibition (score/# of times tested).
**A:** 2.88/2 score

**Q:** Can you look up the measured Vpu Inhibition (score/# of times tested) of `N=C(N)NC(=O)c1ccccc1` for me?
**A:** 0.88/2 score

**Q:** Need Vpu Inhibition (score/# of times tested) of `N=C(N)NC(=O)/C=C/c1ccccc1C1CCCCC1` , thanks.
**A:** 0.8/2 score

**Q:** # query: Vpu Inhibition (score/# of times tested) of entry `N=C(N)NC(=O)/C=C/c1ccccc1C(F)(F)F`
**A:** 2.4/2 score

**Q:** Fill in the blank: the reported Vpu Inhibition (score/# of times tested) of `N=C(N)NC(=O)/C=C/c1ccc(C(F)(F)F)cc1` is ____.
**A:** 2.2/2 score

**Q:** Record request: Vpu Inhibition (score/# of times tested) value, item `CCOc1cccc(/C=C/C(=O)NC(=N)N)c1`
**A:** 1.9/2 score

**Q:** Can you look up the measured Vpu Inhibition (score/# of times tested) of `N=C(NC(=O)c1ccc2cc(O)ccc2c1)Nc1ccccc1` for me?
**A:** 2.06/2 score

**Q:** I'd like to know its Vpu Inhibition (score/# of times tested). The compound in question is `N=C(N)NC(=O)c1ccc(-c2ccccc2)cc1`
**A:** 2.75/5 score

**Q:** So what's the measured Vpu Inhibition (score/# of times tested) for this one? `N=C(N)NC(=O)/C=C/c1ccc(F)cc1`
**A:** 1.1/2 score

**Q:** I have this compound here, N/C(=N\C(=O)c1nc(Cl)c(N)nc1N)NCc1ccccc1 [Benzamil hydrochloride] , and I need its recorded Vpu Inhibition (score/# of times tested).
**A:** 0.9/3 score

**Q:** I have this compound here, CC(C)CN(C)c1nc(N)c(C(=O)N=C(N)N)nc1Cl [5-(N-Methyl-N-isobutyl)amiloride, 5-(N-methyl-N-isobutyl)amiloride] , and I need its recorded Vpu Inhibition (score/# of times tested).
**A:** 0.8/2 score

====

Vpu Inhibition (score/# of times tested) for assorted compounds
Target: Vpu protein (Human immunodeficiency virus type 1 group M subtype B, UniProt P05919)
Sequence (P05919 whole entry): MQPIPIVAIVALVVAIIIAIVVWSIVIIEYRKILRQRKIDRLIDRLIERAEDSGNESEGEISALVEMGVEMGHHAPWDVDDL
Conditions: halo of growth score between zero and six; XL1-blue E. coli with pPL-Vpu, no adenine, 37° C.

Compound: CC(C)(C)c1cccc(/C=C/C(=O)NC(=N)N)c1
Parameter Measured: Vpu Inhibition (score/# of times tested)
Data Value: 2.06/2 score
--
Compound: N=C(N)NC(=O)/C=C/c1ccco1
Parameter Measured: Vpu Inhibition (score/# of times tested)
Data Value: 0.94/2 score
--
Compound: N=C(N)NC(=O)/C=C/c1ccccc1Br
Parameter Measured: Vpu Inhibition (score/# of times tested)
Data Value: 3.7/2 score

**Q:** What does the data say about its Vpu Inhibition (score/# of times tested)? Entry: N=C(N)NC(=O)/C=C/c1ccc(O)cc1 [(4-Hydroxycinnamoyl)guanidine]
**A:** 1.1/2 score

**Q:** Item under review: `COc1nc(N2CCCCCC2)c(Cl)nc1C(=O)N=C(N)N` . Reported Vpu Inhibition (score/# of times tested)?
**A:** 0.2/4 score

====

Biological target: SARS-CoV E protein (Severe acute respiratory syndrome coronavirus)
Sequence (P59637 whole entry, looked up): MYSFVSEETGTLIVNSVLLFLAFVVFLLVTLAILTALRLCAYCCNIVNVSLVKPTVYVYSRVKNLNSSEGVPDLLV
Type: cell-based
Structures can show the parent of a compound that is named as a salt.
Parameter Measured: SARS E protein Inhibition (score/# of times tested)

# example entries with known answers
Compound: N/C(=N\C(=O)c1nc(Cl)c(N)nc1N)Nc1ccccc1 [Phenamil methanesulfonate salt]
Data Value: 0.13/2 score
--
Compound: N=C(N)NC(=O)C1CC1c1ccccc1 (stereo not shown)
Data Value: 1.34/3 score
--
Compound: NC(N)=NC(=O)c1cccc2ccccc12
Data Value: 1.32/3 score
--
Compound: N=C(N)NC(=O)/C=C/c1cccnc1 [[3-(3-Pyridyl)acryloyl]guanidine]
Data Value: 0.67/3 score
--
Compound: Cc1ccc(/C=C/C(=O)NC(=N)N)cc1
Data Value: 1.25/1 score
--
Compound: COc1nc(N2CCCCCC2)c(Cl)nc1C(=O)N=C(N)N
Data Value: 1.25/1 score

Here is another compound to look at.
**Q:** Could you share which SARS E protein Inhibition (score/# of times tested) value was measured for `N=C(N)NC(=O)/C=C/c1c(F)cccc1Cl` ?
**A:** 0.25/1 score

====

Each item that follows carries a reported Vpu Inhibition (score/# of times tested).
Target: Vpu protein (Human immunodeficiency virus type 1 group M subtype B)
Conditions: halo of growth score between zero and six; XL1-blue E. coli with pPL-Vpu, no adenine, 37° C.

Compound Structure String: N=C(N)NC(=O)/C=C/c1ccc(Cl)cc1Cl
Vpu Inhibition (score/# of times tested): 0.63/2 score

**Q:** What Vpu Inhibition (score/# of times tested) value was documented for this compound, `CCc1ccccc1/C=C/C(=O)NC(=N)N` ?
**A:** 2.75/2 score

**Q:** Tell me the measured Vpu Inhibition (score/# of times tested) of `NC(N)=NC(=O)c1ccc(Oc2ccccc2)cc1` , please.
**A:** 0.81/2 score

====

Molecular target: Vpu protein (Human immunodeficiency virus type 1 group M subtype B)
Details: halo of growth score between zero and six; XL1-blue E. coli with pPL-Vpu, no adenine, 37° C.
Recorded Vpu Inhibition (score/# of times tested) by entry

// solved cases for Vpu Inhibition (score/# of times tested) follow
Compound Structure String: N=C(N)NC(=O)/C=C/c1ccc(Cl)c(Cl)c1
Parameter Measured: Vpu Inhibition (score/# of times tested)
Data Value: 2.9/3 score

Compound Structure String: NC(N)=NC(=O)c1ccc2ccccc2c1
Parameter Measured: Vpu Inhibition (score/# of times tested)
Data Value: 2.7/11 score

Please examine the following record next.
**Q:** # lookup: Vpu Inhibition (score/# of times tested) of `NC(N)=NC(=O)/C=C/c1ccccc1`
**A:** 2.96/12 score

The reported numbers originate from patent US11192863B2.
